Test system: Nakaseomyces glabratus
measurementProtocol: Antifungal activity against Candida glabrata ATCC2001 assessed as reduction in fungal growth measured after 24 hrs by CLSI protocol based method
Assay type: functional
quantity: MIC (µg/mL)
Give the value in µg/mL but do not write µg/mL after it.

smilesData	quantity	measured
CCCCCCCCCCC[C@@H](O[C@H]1OC[C@@H](O)[C@H](O)[C@H]1O)[C@H](O)[C@H](O)C[C@@H]1CC(=O)N[C@@H](CO)C(=O)N[C@H]([C@H](O)c2ccc(O)cc2)C(=O)N[C@H](CCN)C(=O)NCC(=O)N[C@@H](CC(=O)N(C)C)C(=O)N[C@H](CO)C(=O)N[C@@H](CC(N)=O)C(=O)N1	MIC	0.5
CCCCCCCCCCC[C@@H](O[C@H]1OC[C@@H](O)[C@H](O)[C@H]1O)[C@H](O)[C@H](O)C[C@@H]1CC(=O)N[C@@H](CO)C(=O)N[C@H]([C@H](O)c2ccc(O)cc2)C(=O)N[C@H](CCN)C(=O)NCC(=O)N[C@@H](CC(=O)NCC)C(=O)N[C@H](CO)C(=O)N[C@@H]([C@H](O)C(N)=O)C(=O)N1	MIC	2
C#CCCNC(=O)C[C@@H]1NC(=O)CNC(=O)[C@@H](CCN)NC(=O)[C@@H]([C@H](O)c2ccc(O)cc2)NC(=O)[C@H](CO)NC(=O)C[C@@H](C[C@@H](O)[C@@H](O)[C@@H](CCCCCCCCCCC)O[C@H]2OC[C@@H](O)[C@H](O)[C@H]2O)NC(=O)[C@H]([C@H](O)C(N)=O)NC(=O)[C@@H](CO)NC1=O	MIC	0.5
CCCCCCCCCCC[C@@H](O[C@H]1OC[C@@H](O)[C@H](O)[C@H]1O)[C@H](O)[C@H](O)C[C@@H]1CC(=O)N[C@@H](CO)C(=O)N[C@H]([C@H](O)c2ccc(O)cc2)C(=O)N[C@H](CCN)C(=O)NCC(=O)N[C@@H](CC(=O)O)C(=O)N[C@H](CO)C(=O)N[C@@H](CC(N)=O)C(=O)N1	MIC	2
CCCCCCCCCCC[C@@H](O[C@H]1OC[C@@H](O)[C@H](O)[C@H]1O)[C@H](O)[C@H](O)C[C@@H]1CC(=O)N[C@@H](CO)C(=O)N[C@H]([C@H](O)c2ccc(O)cc2)C(=O)N[C@H](CCN)C(=O)NCC(=O)N[C@@H](CC(=O)NC)C(=O)N[C@H](CO)C(=O)N[C@@H]([C@H](O)C(N)=O)C(=O)N1	MIC	0.5
CCCCCCCCCCC[C@@H](O[C@H]1OC[C@@H](O)[C@H](O)[C@H]1O)[C@H](O)[C@H](O)C[C@@H]1CC(=O)N[C@@H](CO)C(=O)N[C@H]([C@H](O)c2ccc(O)cc2)C(=O)N[C@H](CCN)C(=O)NCC(=O)N[C@@H](CC(N)=O)C(=O)N[C@H](CO)C(=O)N[C@@H]([C@H](O)C(N)=O)C(=O)N1	MIC	0.25

From here, focus on the item given below.
Form: Entry = CCCCCCCCCCCCNC(=O)C[C@@H]1NC(=O)CNC(=O)[C@@H](CCN)NC(=O)[C@@H]([C@H](O)c2ccc(O)cc2)NC(=O)[C@H](CO)NC(=O)C[C@@H](C[C@@H](O)[C@@H](O)[C@@H](CCCCCCCCCCC)O[C@H]2OC[C@@H](O)[C@H](O)[C@H]2O)NC(=O)[C@H]([C@H](O)C(N)=O)NC(=O)[C@@H](CO)NC1=O | System = Nakaseomyces glabratus | MIC = ____
8
